Test system: A549
Assay: Growth inhibition of human A549 cells after 72 hrs by SRB assay
Format: functional
Details: A549, 72 h
A collection of molecules and their measured log10 of GI50
property.name: log10 of GI50 (log10 of the value in nM)

molecule	property.name	reported
CCCNc1ncnc2c1ncn2CCCCCCOC(=O)[C@@H]1C(C=O)=Cc2cc3c(cc2[C@H]1c1cc(OC)c(OC)c(OC)c1)OCO3	log10 of GI50	3.08
COc1cc([C@@H]2c3cc4c(cc3[C@H](O)[C@@H](CO)[C@H]2C(=O)OCCCCCCBr)OCO4)cc(OC)c1OC	log10 of GI50	2.40
COc1cc([C@@H]2c3cc4c(cc3C=C(C=O)[C@H]2C(=O)OCCCCCCn2cnc3ncnc(Cl)c32)OCO4)cc(OC)c1OC	log10 of GI50	3.08
CCC/N=C/C1=Cc2cc3c(cc2[C@@H](c2cc(OC)c(OC)c(OC)c2)[C@@H]1C(=O)OCc1ccc(Cn2cnc4c(Cl)ncnc42)cc1)OCO3	log10 of GI50	1.77
COc1cc([C@@H]2c3cc4c(cc3[C@H](O)[C@@H](CO)[C@H]2C(=O)OCCCBr)OCO4)cc(OC)c1OC	log10 of GI50	2.15
COc1cc([C@@H]2c3cc4c(cc3C=C(C=O)[C@H]2C(=O)OCCCCCCBr)OCO4)cc(OC)c1OC	log10 of GI50	2.82
CCCNCC1=Cc2cc3c(cc2[C@@H](c2cc(OC)c(OC)c(OC)c2)[C@@H]1C(=O)OCc1ccc(Cn2cnc4c(Cl)ncnc42)cc1)OCO3	log10 of GI50	2.76
CCCNCC1=Cc2cc3c(cc2[C@@H](c2cc(OC)c(OC)c(OC)c2)[C@@H]1C(=O)OCCCCCCn1cnc2c(Cl)ncnc21)OCO3	log10 of GI50	3.36
COc1cc([C@@H]2c3cc4c(cc3C=C(C=O)[C@H]2C(=O)OCCCn2cnc3cncnc32)OCO4)cc(OC)c1OC	log10 of GI50	2.90
COc1cc([C@@H]2c3cc4c(cc3[C@@H](O[C@@H]3O[C@@H]5CO[C@@H](C)O[C@H]5[C@H](O)[C@H]3O)[C@H]3COC(=O)[C@H]23)OCO4)cc(OC)c1O [ETOPOSIDE]	log10 of GI50	3.34
COc1cc([C@@H]2c3cc4c(cc3C=C(C=O)[C@H]2C(=O)OCCCCCCn2cnc3c(Cl)ncnc32)OCO4)cc(OC)c1OC	log10 of GI50	2.60

Data origin: ChEMBL document CHEMBL2150917
